# method: GSK_TCAKS: pIC50 HepG2 human cell line viability assay using luminiscence. […] Seeding density was checked to ensure that new mono-layers were not more than 50% confluent at the time of harvesting. Cell suspension was added to 500 mL of the same medium at a final density of 1.2 * 10^5 cells/mL. This cell suspension was dispensed (25 uL, 3000 cells per well) into 384-well clear-bottom plates using a Multidrop Combi dispenser. Prior to addition of the cell suspension, the screening compounds (250 nL) were pre-dispensed into the plates with an Echo liquid handler. Plates were incubated for 48 h at 37C, 5% CO2. After incubation, plates equilibrated at room temperature for 30 min before proceeding to develop the luminescent signal. The signal developer, CellTiter-Glo Reagent, was allowed to equilibrate at room temperature for 30 min and added to the plates (25uL per well) using a Multidrop Combi dispenser. Plates were left for 10 min at room temperature for stabilization and then read using a ViewLux.
# Format: toxicity, cell-based
observed-property: IC50 at 48 h (µM)
Give the number; µM is assumed, so skip it.

# example entries with known answers
O=C(Nc1nc(-c2ccc(F)cc2)cs1)c1ccc([N+](=O)[O-])s1 = 12.6
O=[N+]([O-])c1ccc(C2=NCCNC(c3ccccc3)=C2)cc1.[O-][Cl+3]([O-])([O-])O = 50.1
COCCn1c(-c2ccc3c(c2)OCO3)cnc1NCc1ccccc1OC = 39.8
Cc1cc(Br)sc1CNCCCNc1cc(=O)c2ccccc2[nH]1 = 39.8
C[C@@H](Oc1cc(-n2cnc3cc(N)ccc32)sc1C(N)=O)c1ccccc1Cl = 20

Okay, now this compound:
Per the record, "CCS(=O)(=O)c1cccc(C(=O)Nc2nc(-c3ccccn3)cs2)c1" has IC50 at 48 h of 25.1

---

# Test system: Trypanosoma cruzi
# method: GSK_TCAKS: pIC50 Trypanosoma cruzi viability assay using beta-GAL activity. This assay was run at single shot at 5uM compound concentration per well. The biological reagents consisted of NIH-3T3 host cells and trypomastigotes parasitic cells; both cell types were set to a 3.3 * 10^5 cells/mL dilution in assay DMEM by means of a CASY cell counter device using a 60um capillary. 6 uL of the mixture were dispensed per well (about 1 * 10^3 host-cells and 1 * 10^3 parasites) with a Multidrop Combi dispenser. […] In all wells, the percentage of DMSO never exceeded 0.5%. Plates incubated for four days at 37C, 5% CO2. The substrate used for the assay fluorescence intensity (FLINT) readout was resorufin-beta-D-galactopiranoside (Sigma-Aldrich) at 5uM per well. It was diluted in PBS supplemented with the soft detergent Igepal (Fluka).
# Assay type: functional, organism-based, Mus musculus
# experimental-conditions: Tulahuen, NIH3T3
Measured pIC50 by item
To interpret pIC50, take it as minus log10 of a concentration measured in moles per litre.

Below, each entry is followed by its recorded pIC50 result.
O=C(c1ccccc1)N1CCC(C(=O)N2CCC(Oc3ccccc3Cl)CC2)CC1 = 5.70
COc1ccc2nccc(NC(=O)C3(OC)CCN(CC(O)c4ccc5c(c4)OCCO5)CC3)c2n1 (stereo not drawn) = 6.60
O=C(Nc1cccc(S(=O)(=O)Nc2ccc(Br)cc2)c1)c1ccc([N+](=O)[O-])s1 = 7.00
CCCC(=O)N(Cc1ccccn1)c1nc2ccccc2s1 = 6.90
COc1ccc(OC)c(S(=O)(=O)N(Cc2c(F)cccc2F)[C@@H]2CCN(C#N)C2)c1 = 5.20
Cc1c(CNC(=O)c2ccc(Cn3cc(Cl)c([N+](=O)[O-])n3)cc2)cnn1C = 6.00
COc1cc(OC)cc(C(NS(=O)(=O)c2ccc(Cl)c(C(F)(F)F)c2)c2nccn2C)c1 (stereo not drawn) = 5.40
O=C(Nc1nc2cc(Cl)ccc2o1)c1cccc(Cl)c1 = 6.10
COc1ccc(C2CC(c3ccc(NS(C)(=O)=O)cc3)=NN2C(=O)c2cccs2)cc1OC (stereo not drawn) = 4.60
Clc1ccc(C(CC2CCCCO2)Cn2cncn2)c(Cl)c1 (stereo not drawn) = 6.40

Looking up "CCN(C)Cc1ccc(N2CCC(NS(=O)(=O)c3ccc4c(c3)CCO4)CC2)nc1" , I see its pIC50 listed as 6.20

Per the records, this compound ( "CS(=O)(=O)c1ccc(Nc2nccc(Nc3n[nH]c4ccc(F)cc34)n2)c(F)c1" ) has pIC50 equal to 5.10

Sure, the documented pIC50 for "COc1ccc2ncc(Cl)c(CCN3CC[C@@H](NCc4cc5c(cn4)OCS5)[C@H](O)C3)c2n1" is 6.90

Record "COc1ccc(S(=O)(=O)Nc2ccc(C(=O)Nc3nc(-c4ccccn4)cs3)cc2)cc1" , field pIC50: 6.05

Briefly, pIC50 measured for CC1CCCCN1C(=O)NCCc1coc(-c2ccc(F)cc2)n1 (stereo not drawn) : 6.40

Looking up "COCc1cc(Nc2ccccc2)nc(-c2ccccn2)n1" , I found its pIC50 recorded as 5.30

Summary for this compound, "O=C(Nc1ccc(S(=O)(=O)N2CCCC2)cc1)c1ccc([N+](=O)[O-])s1" : pIC50 is 6.70

Summary for this compound, "COc1ccc([N+](=O)[O-])cc1NC(=O)c1cc(Cl)ccc1O" : pIC50 is 4.50

compound "CC(C)(C)Nc1nc(-c2ccccn2)nc2ccccc12" , pIC50 observed: 5.90

response.value for "O=C(Nc1cccc(F)c1)N1CCC(Oc2cccc(-c3cccnc3)c2)CC1" (field: pIC50) = 6.20

pIC50 reported for this compound "CCN(CC)S(=O)(=O)c1ccc(C)c(NC(=O)c2cc(Cl)c3c(c2)OCO3)c1" : 5.20

---

# System: Trypanosoma brucei brucei
# method: GSK_TCAKS: pIC50 Trypanosoma brucei viability assay using fluorescence intensity. Assay plates (1536-well) were prepared by dispensing 25nL of compound solution per well using an Echo acoustic dispenser (Labcyte).
# Format: functional, organism-based
# experimental-conditions: Lister 427, 2 h
observed-property: IC50 (µM)
Report the value in µM with no unit label.

CC(C)CC(=O)Nc1cc(C2CC2)nn1-c1nc2c(c(=O)[nH]1)CCCC2 = 0.2
CN(C)CCOc1ccc(N2CCN(S(=O)(=O)c3ccc(Cl)cc3)CC2)cc1 = 20
Cc1ccc(NC(=O)c2ccnc(N3CCCC3)c2)cc1-c1cc(C(N)=O)ccc1C = 0.1
CNC(=O)C1Cc2ccccc2N1C(=O)Cc1ccc(OC)cc1 (stereo not given) = 0.398
CC(C)(C)c1csc(NC(=O)c2ccc([N+](=O)[O-])s2)n1 = 0.2
CNc1nc(C)nc(N2CCc3cc(C(=O)NCc4ccc(-c5nccn5C)cc4Cl)ccc32)n1 = 12.6

Please find the next molecule below.
Record "Cc1cc(-c2cccc3ccccc23)nc2nc(N)nc(N)c12" , field IC50: 31.6

---

# Test system: Trypanosoma cruzi
# method: GSK_TCAKS: pIC50 Trypanosoma cruzi Imaging: Infected Cells. […] Cells were then washed once with PBS before infection. T. cruzi trypomastigotes, collected at days 5 to 8 after infection from LLC-MK2 parasite infected cultures, were allowed to swim out for 4h at 37C from a centrifuged pellet (2,500 rpm/10 min/room temperature). Trypomastigotes were then collected and counted in a CASY Cell Counter. Trypomastigotes, in supplemented DMEM, were added to H9c2 cultures in a multiplicity of infection of 1 and incubated for 18 h. Cells were washed once with PBS before incubation of the infected H9c2 monolayer with trypsin (Life-Technologies) to detach cells from the flask. Cells were counted in a CASY Cell Counter using a 150 um capillary and their density set at 5 * 10^4 cells per mL in supplemented assay DMEM. Infected H9c2 were dispensed into 384-well poly-lysine coated assay plates at 50uL per well using a Multidrop Combi dispenser. After seeding them, the plates were incubated at 37C, 5% CO2 for 72h. Cultures were then fixed and stained by addition of 50 uL of a solution containing 8% formaldehyde and 4 uM DRAQ5 DNA dye (BioStatus, UK) per well. […] Five images were collected per well for reliable statistical analysis. Automated image analysis was performed with a script developed on Acapella High Content Imaging and Analysis Software (PerkinElmer). Output: percentage of infected cells per well as a second infection marker.
# Type: functional, organism-based, Rattus norvegicus
# experimental-conditions: H9c2, 4 h
observed-property: pIC50
Hey, just a heads up that pIC50 is the negative log base 10 of the concentration in molar.

Record excerpt, results attached:
COc1cccc2sc(CN(C)C(=O)C3CNCCN3c3ccc(F)cc3)c(C)c12 (stereo not drawn) = 6.70
O=C(NC1C(=O)N(c2ccccc2)C1c1cccnc1)c1ccc(Cl)s1 (stereo not drawn) = 7.30
CN(C)Cc1ccc(-c2ccc(S(=O)(=O)NCC3CCCO3)c(F)c2)cc1 (stereo not drawn) = 5.30

Per the reported Trypanosoma cruzi data, "COc1cccc(-c2cc(C(F)(F)F)nc(-n3ccc([N+](=O)[O-])n3)n2)c1" has pIC50 of 6.40

Readout pIC50 for "O=C(Nc1nc(-c2ccccn2)cs1)c1ccccc1-n1cnnn1" , test system Trypanosoma cruzi, was 5.50

// compound "O=C(Nc1ccc(Br)cn1)c1ccc(Cn2cnc([N+](=O)[O-])n2)cc1" , assay Trypanosoma cruzi, pIC50 value: 6.90

Readout pIC50 for "CCN(CC)c1ccc(S(=O)(=O)N(CC)CC)c2nonc12" , test system Trypanosoma cruzi, was 4.30

Considering "CC(C)c1cc(Nc2cc(Cc3ccccc3)nc(N[C@H]3CC[C@H](O)CC3)n2)n[nH]1" , its pIC50 with Trypanosoma cruzi was recorded as 7.10

Values from ChEMBL document CHEMBL3430912
